Where do these numbers come from? They come from patent US20190144863.

# TARGET DESC: EZH2 (UniProt Q61188 Q61188:1-746)
# Sequence (Q61188 whole entry, one chain of several): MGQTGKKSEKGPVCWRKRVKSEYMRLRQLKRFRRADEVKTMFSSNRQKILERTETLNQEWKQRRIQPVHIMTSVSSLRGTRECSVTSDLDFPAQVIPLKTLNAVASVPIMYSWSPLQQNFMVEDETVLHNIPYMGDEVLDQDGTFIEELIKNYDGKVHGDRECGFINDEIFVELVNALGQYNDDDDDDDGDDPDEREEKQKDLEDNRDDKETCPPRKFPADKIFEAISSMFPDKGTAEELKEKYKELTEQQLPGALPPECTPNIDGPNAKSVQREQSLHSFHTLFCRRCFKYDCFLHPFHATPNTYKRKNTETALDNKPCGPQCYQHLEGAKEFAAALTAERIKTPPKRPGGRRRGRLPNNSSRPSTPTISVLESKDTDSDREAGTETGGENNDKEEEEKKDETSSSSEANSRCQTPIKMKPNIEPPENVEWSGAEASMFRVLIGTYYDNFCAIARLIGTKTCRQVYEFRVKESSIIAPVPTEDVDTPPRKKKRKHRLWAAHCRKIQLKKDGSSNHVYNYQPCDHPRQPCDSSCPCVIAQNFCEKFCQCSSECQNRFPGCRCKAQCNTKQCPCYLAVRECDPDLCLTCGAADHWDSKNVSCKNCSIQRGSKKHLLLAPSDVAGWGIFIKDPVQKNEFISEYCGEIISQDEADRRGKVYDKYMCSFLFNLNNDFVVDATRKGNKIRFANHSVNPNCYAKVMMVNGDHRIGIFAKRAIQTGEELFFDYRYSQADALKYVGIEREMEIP
# TEST METHOD NOTES: filter; double-filter binding, same buffer with yeast tRNA; extremely low affinity
# CONDITIONS USED: label: radiolabelled (cpm)
pKd: −log10 of the molar value.
MEASURE NAME: pKd

BINDER	MEASURED
B2 RNA domain I+II (ssRNA, [none]) RNA: GGGGCUGGUGAGAUGGCUCAGUGGGUAAGAGCACCCGACUGCUCUUCCGAAGGUCCGGAGUUCAAAUCCCAGCAACCACAUGGUGGCUCACAACCAUCCGUAACG	< 5.52
CGUAACGAGAUCUGACUCCCUCUUCUGGAGUGUCUGAAGACA (ssRNA, [none]) [B2 RNA domain III]	< 5.52
B2 RNA domain I (ssRNA, [none]) RNA: GGGGCUGGUGAGAUGGCUCAGUGGGUAAGAGCACCCGACUGCUCUUCCGAAGGUCCGGAGUUCAAAUCCCAG	< 5.52
